Reported melting point is given for each of the following compounds.

CCOC(=O)c1ccc(NC(=O)C(COc2cccnc2)NS(=O)(=O)c2ccc(Cl)cc2)cc1 (racemic): 119 to 124 °C
CCOC(=O)c1ccc(N=C(Nc2ccc(C(=O)OCC)cc2)c2cccc(Cl)c2)cc1: 160 to 170 °C
CCC(=O)c1ccc(OC)c(Cl)c1Cl: 51 to 54 °C

In: Find the measured melting point of CCCn1nc(C)c2nc(C)nc(O)c21 and report it.
Out: 196 to 198 °C

In: Find the measured melting point of CS(=O)(=O)C(=C1CN(C(c2ccccc2)c2ccccc2)C1)c1cccc(F)c1 and report it.
Out: 210 °C

In: Find the measured melting point of O=C1CNc2ccc(S(=O)(=O)Oc3ccccc3)cc2N1 and report it.
Out: 253 to 254 °C

In: Find the measured melting point of COc1ccc(C2=NNS(=O)(=O)Cc3cc4nsnc4cc32)cc1 and report it.
Out: 225 to 227 °C

In: Find the measured melting point of COc1cc(O)c2c(c1OC)C(=O)C(O)=C(C)C2=O and report it.
Out: 218 to 220 °C

In: Find the measured melting point of Nc1nonc1-c1nc2ccccc2n1CC(=O)c1ccc(Cl)c([N+](=O)[O-])c1 and report it.
Out: 198 to 200 °C

In: Find the measured melting point of COc1cccc(CC2CCN(C(=O)C(=O)Nc3ccc4[nH]c(=O)oc4c3)CC2)c1 and report it.
Out: 110 to 115 °C

In: Find the measured melting point of N#Cc1ccc2c(c1)C[C@H](NS(=O)(=O)c1ccccc1)CN2C(=O)c1ccccc1 and report it.
Out: 174 to 175 °C

In: Find the measured melting point of NC(=O)CNC(=O)c1cccc(-c2cccc3cc(Cc4cc(F)cc(Cl)c4)sc23)n1 and report it.
Out: 200 to 201 °C

In: Find the measured melting point of COc1c(C)c(N)c2c(c1C)C(c1ccc(C(C)C)cc1)C(C)(C)O2 (stereo not given) and report it.
Out: 111 to 112 °C

In: Find the measured melting point of Nc1cccnc1NCc1ccc(Cl)cc1 and report it.
Out: 123 to 125 °C

In: Find the measured melting point of CCCNCc1ccc(S(=O)(=O)c2ccc(S(N)(=O)=O)s2)cc1 and report it.
Out: 151 to 153 °C
